- measurement target: Cytochrome P450 3A4 (Homo sapiens) (UniProt P08684)
- Sequence (P08684 whole entry, looked up): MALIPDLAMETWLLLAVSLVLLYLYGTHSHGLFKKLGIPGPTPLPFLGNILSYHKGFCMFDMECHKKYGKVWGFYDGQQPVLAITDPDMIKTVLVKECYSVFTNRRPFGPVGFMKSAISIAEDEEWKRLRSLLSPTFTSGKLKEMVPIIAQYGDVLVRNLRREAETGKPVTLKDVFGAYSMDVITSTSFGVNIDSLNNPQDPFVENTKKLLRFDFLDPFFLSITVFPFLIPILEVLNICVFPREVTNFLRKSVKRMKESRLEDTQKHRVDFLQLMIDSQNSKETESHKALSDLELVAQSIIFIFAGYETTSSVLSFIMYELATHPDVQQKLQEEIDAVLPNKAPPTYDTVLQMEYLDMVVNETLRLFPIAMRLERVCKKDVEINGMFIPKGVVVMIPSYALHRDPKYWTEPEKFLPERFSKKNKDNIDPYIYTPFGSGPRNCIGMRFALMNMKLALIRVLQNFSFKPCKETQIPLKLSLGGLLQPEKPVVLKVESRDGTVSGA
- method notes: Cytochrome panel assay with activity outcomes
- measurement setup: recombinant CYP, pro-luciferin dealkylation, luminescence, p450-cyp3a4; series mostly up to 57.1 µM
- Description: The P450 gene superfamily is involved in the metabolism and clearance of xenobiotics. This assay used various human CYP P450 isozymes to measure the dealkylation of various pro-luciferin substrates to luciferin. The luciferin is then measured by luminescence after the addition of a luciferase detection reagent. […] Inhibitors and some substrates limit the production of luciferin, and decrease measured luminescence. […] 8, Detection, 1 sec, ViewLux luminescent read […]
Out of some 16,000 compounds screened, about 5,100 (32%) were called active. Another 25% or so got no clear call; they are omitted. The call rests on the fitted dose curve; in most records, active means well fitted curve in the direction sought with a large enough effect; inconclusive means small, poorly fitted or top-dose-only effect, or effect the other way; inactive means no such curve, though single readings can be large or run the other way. The list shows a part of the results.
Respond only with the outcome that fits, drawn from active, inactive

Example results:
[
  {
    "compound": "COc1ccc2nc(C)cc(SCC(=O)Nc3c(C)cc(C)cc3C)c2c1",
    "measurement target": "Cytochrome P450 3A4 (Homo sapiens) (UniProt P08684)",
    "group": "active"
  },
  {
    "compound": "COc1ccc(NC(=O)c2cc3n(n2)C(C(F)(F)F)CC(c2ccc4c(c2)OCO4)N3)cc1OC (stereo not given)",
    "measurement target": "Cytochrome P450 3A4 (Homo sapiens) (UniProt P08684)",
    "group": "inactive"
  },
  {
    "compound": "C=CCn1c(SCC(=O)NC2CCCCC2)nnc1C1CCCCC1",
    "measurement target": "Cytochrome P450 3A4 (Homo sapiens) (UniProt P08684)",
    "group": "active"
  },
  {
    "compound": "OCCN1CCN(C(=S)c2ccc(Br)cc2)CC1",
    "measurement target": "Cytochrome P450 3A4 (Homo sapiens) (UniProt P08684)",
    "group": "inactive"
  }
]

Kindly review the next compound as well.
Exercise: Hello, I am checking results. What call was entered for O=c1cnc2cnc(Nc3ccccc3)nc2n1CCc1ccccc1 ?
Key: inactive
